B1: library; a variant is named by its letters at N, in order (parent)
chain: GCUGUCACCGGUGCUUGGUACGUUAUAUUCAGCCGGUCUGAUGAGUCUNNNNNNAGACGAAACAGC

Variants of: B1
ASSAY PROTOCOL: normalized RNA/DNA level without ligand (relative to sTRSVctl = 100) (log10 (% of sTRSVctl)); HEK293T overexpressing SLC46A1; higher = less ribozyme self-cleavage, higher mRNA level
PROTOCOL CONDITIONS: without (6R,S)-folinic acid; ligand present: no
normalized RNA/DNA level without ligand (log10) overview
API doc: respond with a numeric literal and nothing else, no unit.

GCUGUCACCGGUGCUUGGUACGUUAUAUUCAGCCGGUCUGAUGAGUCUCGCCCAAGACGAAACAGC [CGCCCA] :: 2.07
GCUGUCACCGGUGCUUGGUACGUUAUAUUCAGCCGGUCUGAUGAGUCUUGGUCAAGACGAAACAGC [UGGUCA] :: 1.98
GCUGUCACCGGUGCUUGGUACGUUAUAUUCAGCCGGUCUGAUGAGUCUCUAGAGAGACGAAACAGC [CUAGAG] :: 1.92
GCUGUCACCGGUGCUUGGUACGUUAUAUUCAGCCGGUCUGAUGAGUCUGAACCCAGACGAAACAGC [GAACCC] :: 2.02
GCUGUCACCGGUGCUUGGUACGUUAUAUUCAGCCGGUCUGAUGAGUCUGGGUCUAGACGAAACAGC [GGGUCU] :: 2.06
GCUGUCACCGGUGCUUGGUACGUUAUAUUCAGCCGGUCUGAUGAGUCUAGGGAUAGACGAAACAGC [AGGGAU] :: 1.95
GCUGUCACCGGUGCUUGGUACGUUAUAUUCAGCCGGUCUGAUGAGUCUCCACGUAGACGAAACAGC [CCACGU] :: 2.05
GCUGUCACCGGUGCUUGGUACGUUAUAUUCAGCCGGUCUGAUGAGUCUUGGAAUAGACGAAACAGC [UGGAAU] :: 1.87

Exercise: Could you tell me which normalized RNA/DNA level without ligand (log10) is on file for GCUGUCACCGGUGCUUGGUACGUUAUAUUCAGCCGGUCUGAUGAGUCUGGGCACAGACGAAACAGC [GGGCAC] ?
Solution: 2

Exercise: Could you tell me which normalized RNA/DNA level without ligand (log10) is on file for GCUGUCACCGGUGCUUGGUACGUUAUAUUCAGCCGGUCUGAUGAGUCUCCCUGCAGACGAAACAGC [CCCUGC] ?
Solution: 2.08

Exercise: Give the measured normalized RNA/DNA level without ligand (log10) of GCUGUCACCGGUGCUUGGUACGUUAUAUUCAGCCGGUCUGAUGAGUCUACACACAGACGAAACAGC [ACACAC] .
Solution: 2.02

Source listed as the supplement of paper PMC6757056.
